Kindly state IC50 for each of the entries shown.
target: Ba/F3 cells TPM3-TRKA (Homo sapiens, UniProt P04629); construct: the other entry of the earlier key: TPM3 (P06753, Tropomyosin alpha-3 chain); assay: Ba/F3 cell proliferation assay, TPM3-TRKA; details: 72 hours, CellTiter-Glo, read-out: TPM3-NTRK1-wt IC50
Sequence (P04629 510-796 limits assumed): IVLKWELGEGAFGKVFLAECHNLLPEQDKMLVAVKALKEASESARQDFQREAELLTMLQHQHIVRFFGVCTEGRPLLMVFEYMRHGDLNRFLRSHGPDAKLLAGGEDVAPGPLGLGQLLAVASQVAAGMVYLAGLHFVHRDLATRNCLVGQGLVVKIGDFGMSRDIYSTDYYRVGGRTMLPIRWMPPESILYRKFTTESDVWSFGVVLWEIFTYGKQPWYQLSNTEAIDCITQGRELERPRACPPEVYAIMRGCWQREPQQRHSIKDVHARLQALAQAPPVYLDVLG

## Input Print Ba/F3 cells TPM3-TRKA (Homo sapiens, UniProt P04629) IC50 for CCc1onc2c1-c1cnc(N)c(c1)O[C@H](C)c1cc(F)ccc1-c1nn(C)nc1C2 [Example 31] .
## Output 50 to 500 nM

## Input Param request: IC50 | system Ba/F3 cells TPM3-TRKA (Homo sapiens, UniProt P04629) | item CCn1ncc2c1-c1cnc(N)c(c1)O[C@H](C)c1cc(F)ccc1-c1cc(F)nn1C2 [Example 15]
## Output 50 to 500 nM

## Input Give IC50 only, for CCn1ncc2c1-c1cnc(N)c(c1)O[C@H](C)c1cc(F)ccc1-n1ccnc1C2 [Example 42] , using Ba/F3 cells TPM3-TRKA (Homo sapiens, UniProt P04629) data.
## Output 50 to 500 nM

## Input Please look at Cc1nc2c(o1)-c1ccc(F)cc1[C@@H](C)Oc1cc(cnc1N)-c1c(cnn1CC1CC1)C2 [Example 76] and tell me its recorded IC50 on Ba/F3 cells TPM3-TRKA (Homo sapiens, UniProt P04629).
## Output > 500 nM

## Input Identify measured IC50 obtained with Ba/F3 cells TPM3-TRKA (Homo sapiens, UniProt P04629) for C[C@H]1Oc2cc(cnc2N)-c2c(C#N)ncn2Cc2ncncc2-c2ccc(F)cc21 [Example 18] .
## Output > 500 nM

## Input Specify the recorded IC50 for CCn1ncc2c1-c1cnc(N)c(c1)O[C@H](C)c1cc(F)ccc1-c1oc(C)nc1C2 [Example 66] , system: Ba/F3 cells TPM3-TRKA (Homo sapiens, UniProt P04629).
## Output 50 to 500 nM

## Input Please tell me the measured IC50 for Cc1nc2n(n1)Cc1cnn(CC3CC3)c1-c1cnc(N)c(c1)O[C@H](C)c1cc(F)ccc1-2 [Example 75] ; system: Ba/F3 cells TPM3-TRKA (Homo sapiens, UniProt P04629).
## Output 50 to 500 nM

## Input Give IC50 only, for Cc1nn(CC2CC2)c2c1Cc1nn(C)nc1-c1ccc(F)cc1[C@@H](CO)Oc1cc-2cnc1N [Example 96] , using Ba/F3 cells TPM3-TRKA (Homo sapiens, UniProt P04629) data.
## Output > 500 nM

====

biological target: Ba/F3 cells EML4-ALK L1196M/G1202R (variant 1) (Homo sapiens, UniProt Q9UM73, G1202R/L1196M); construct: echinoderm microtubule-associated protein-like 4 (EML4) gene and the ALK tyrosine kinase domain; the other entry of the earlier key: EML4 (Q9HC35, Echinoderm microtubule-associated protein-like 4); assay: Ba/F3 cell proliferation assay, EML4-ALK L1196M/G1202R (variant 1); details: 72 hours, CellTiter-Glo
Sequence (Q9UM73 with tags, fused parts or gaps L1196M/G1202R): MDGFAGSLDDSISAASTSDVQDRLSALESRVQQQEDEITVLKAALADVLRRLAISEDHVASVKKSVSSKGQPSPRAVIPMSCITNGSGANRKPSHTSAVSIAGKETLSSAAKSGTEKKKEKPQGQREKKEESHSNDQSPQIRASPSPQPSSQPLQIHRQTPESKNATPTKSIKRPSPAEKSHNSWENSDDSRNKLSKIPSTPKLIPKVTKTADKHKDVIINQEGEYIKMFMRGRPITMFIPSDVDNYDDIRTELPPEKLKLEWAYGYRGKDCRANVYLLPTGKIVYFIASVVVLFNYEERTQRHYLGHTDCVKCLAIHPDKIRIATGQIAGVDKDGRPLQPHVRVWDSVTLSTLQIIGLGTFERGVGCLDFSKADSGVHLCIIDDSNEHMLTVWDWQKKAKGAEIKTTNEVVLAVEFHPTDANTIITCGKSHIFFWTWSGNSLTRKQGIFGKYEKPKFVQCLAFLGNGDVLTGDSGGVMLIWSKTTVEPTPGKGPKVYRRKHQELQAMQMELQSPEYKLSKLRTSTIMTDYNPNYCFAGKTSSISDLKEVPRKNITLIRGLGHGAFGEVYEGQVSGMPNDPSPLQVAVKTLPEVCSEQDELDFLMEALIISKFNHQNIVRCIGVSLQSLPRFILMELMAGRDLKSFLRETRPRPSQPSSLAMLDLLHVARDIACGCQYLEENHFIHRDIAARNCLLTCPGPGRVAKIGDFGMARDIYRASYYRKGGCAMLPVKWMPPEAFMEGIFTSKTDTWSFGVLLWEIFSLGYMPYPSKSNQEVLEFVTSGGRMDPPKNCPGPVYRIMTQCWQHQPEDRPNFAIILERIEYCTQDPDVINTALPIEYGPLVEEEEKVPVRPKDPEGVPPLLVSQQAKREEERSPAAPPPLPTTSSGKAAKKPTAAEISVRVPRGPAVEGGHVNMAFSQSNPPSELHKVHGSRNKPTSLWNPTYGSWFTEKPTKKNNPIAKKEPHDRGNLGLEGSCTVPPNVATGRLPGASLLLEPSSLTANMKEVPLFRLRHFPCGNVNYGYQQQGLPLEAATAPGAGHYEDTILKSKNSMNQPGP
pIC50: −log10 of the molar value.
value.kind: pIC50

## Input Output measured pIC50 for this item: CCn1ncc2c1-c1cnc(N)c(c1)O[C@H](C)c1cc(F)ccc1-c1cc(F)nn1C2 [Example 15]
## Output 7.30 to 10.00

## Input // Input: CCn1ncc2c1-c1cnc(N)c(c1)O[C@H](C)c1cc(F)ccc1-c1cnnn1C2 [Example 2] . Output its pIC50 only.
## Output < 6.30

## Input Give pIC50 for CCc1noc2c1-c1cnc(N)c(c1)O[C@H](C)c1cc(F)ccc1-c1ncnn1C2 [Example 50]
## Output 6.30 to 7.30

## Input Indicate its recorded pIC50; the compound in question is Cc1nc2c(o1)-c1ccc(F)cc1[C@@H](C)Oc1cc(cnc1N)-c1c(c(C)nn1CC1CC1)C2 [Example 78]
## Output 6.30 to 7.30

## Input Output pIC50 of Cc1nn(CC2CC2)c2c1Cc1nn(C)nc1-c1ccc(F)cc1COc1cc-2cnc1N [Example 71]
## Output 6.30 to 7.30

## Input Item Cc1nc2c(s1)-c1ccc(F)cc1[C@@H](C)Oc1cc(cnc1N)-c1c(C#N)nn(C)c1C2 [Example 68] : provide pIC50
## Output 6.30 to 7.30

## Input Indicate its recorded pIC50; the compound in question is CCc1noc2c1-c1cnc(N)c(c1)O[C@H](C)c1cc(F)ccc1-c1cn(C)nc1C2 [Example 23]
## Output 6.30 to 7.30

## Input Supply pIC50 value. Item: C[C@H]1Oc2cc(cnc2N)-c2c(C#N)ncn2Cc2ncc(F)cc2-c2ccc(F)cc21 [Example 48]
## Output 7.30 to 10.00

====

target: ROS1-G2032R (Homo sapiens, UniProt P08922, G2032R); assay: Biochemical kinase assay, ROS1-G2032R kinase domain; conditions: apparent inhibitory constant, Morrison equation; ATP 2 mM in substrate solution; read-out: ROS1-G2032R Ki^app
Sequence (P08922 1945-2222 G2032R limits assumed): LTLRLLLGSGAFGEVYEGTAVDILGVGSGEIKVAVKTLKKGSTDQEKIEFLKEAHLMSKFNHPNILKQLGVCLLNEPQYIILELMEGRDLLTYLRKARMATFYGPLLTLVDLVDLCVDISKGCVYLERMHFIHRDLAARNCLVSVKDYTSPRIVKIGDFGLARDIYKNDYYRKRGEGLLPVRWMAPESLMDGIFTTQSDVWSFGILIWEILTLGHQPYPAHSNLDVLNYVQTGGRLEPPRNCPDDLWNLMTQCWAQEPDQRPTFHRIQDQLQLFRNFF
Please go through the items and note down their Ki.

## Input Look up and report measured Ki for this entry: C[C@H]1Oc2cc(cnc2N)-c2c(cnn2C2CCC2)Cn2nncc2-c2ccc(F)cc21 [Example 7]
## Output 50 to 500 nM

## Input Given C[C@H]1Oc2cc(cnc2N)-c2c(C#N)ncn2Cc2nccnc2-c2ccc(F)cc21 [Example 46] , respond with its Ki.
## Output 50 to 500 nM

## Input # return recorded Ki for entry Cc1nn(CC2CC2)c2c1Cc1nn(C)nc1-c1ccc(F)cc1COc1cc-2cnc1N [Example 71]
## Output 50 to 500 nM

## Input Give a short answer stating reported Ki for Cc1nn(CC2CC2)c2c1Cn1nccc1-c1ccc(F)cc1[C@@H](C)Oc1cc-2cnc1N [Example 45] .
## Output < 50 nM

## Input Return Ki for the following molecule: C[C@H]1Oc2cc(cnc2N)-c2c(cnn2CC2CC2)Cn2ncnc2-c2ccc(F)cc21 [Example 70]
## Output < 50 nM

## Input State its Ki for this molecule: C[C@H]1Oc2cc(cnc2N)-c2c(c(Cl)nn2CC(F)F)Cc2nn(C)nc2-c2ccc(F)cc21 [Example 60]
## Output 50 to 500 nM

## Input Tell us which Ki value is on record for C[C@H]1Oc2cc(cnc2N)-c2c(C#N)ncn2Cc2ncncc2-c2ccc(F)cc21 [Example 18]
## Output 50 to 500 nM

## Input Item C[C@H]1Oc2cc(cnc2N)-c2c(cnn2C2CCC2)Cc2nn(C)nc2-c2ccc(F)cc21 [Example 13] : provide Ki
## Output < 50 nM

## Input Supply Ki value. Item: CCc1noc2c1-c1cnc(N)c(c1)O[C@H](C)c1cc(F)ccc1-c1ncnn1C2 [Example 50]
## Output 50 to 500 nM

## Input In one line, give reported Ki of the entry C[C@H]1Oc2cc(cnc2N)-c2c(CC3CC3)nn(C)c2Cc2nn(C)nc2-c2ccc(F)cc21 [Example 100] .
## Output < 50 nM

## Input Give the reported Ki for this molecule. CCc1noc2c1-c1cnc(N)c(c1)O[C@H](C)c1cc(F)ccc1-c1nnnn1C2 [Example 58]
## Output 50 to 500 nM

## Input Name the recorded Ki of the molecule listed here: C[C@H]1Oc2cc(cnc2N)-c2c(cnn2C2COC2)Cc2nn(C)nc2-c2ccc(F)cc21 [Example 83]
## Output < 50 nM

## Input Return the recorded Ki value; entry: CCn1nc(C)c2c1-c1cnc(N)c(c1)O[C@H](C)c1cc(F)ccc1-c1ncnn1C2 [Example 56]
## Output < 50 nM

## Input Input Cc1cc2n(n1)Cc1cnn(CCF)c1-c1cnc(N)c(c1)O[C@H](C)c1cc(F)ccc1-2 [Example 92] , output reported Ki.
## Output < 50 nM

## Input Please report Ki for the following molecule: C[C@H]1Oc2cc(cnc2N)-c2c(cnn2CC2CC2)Cn2nc(Cl)cc2-c2ccc(F)cc21 [Example 74]
## Output < 50 nM

====

pKi: −log10 of the molar value.
Entries below carry reported pKi on ROS1-wt (Homo sapiens, UniProt P08922).
Sequence (P08922 1945-2222 limits assumed): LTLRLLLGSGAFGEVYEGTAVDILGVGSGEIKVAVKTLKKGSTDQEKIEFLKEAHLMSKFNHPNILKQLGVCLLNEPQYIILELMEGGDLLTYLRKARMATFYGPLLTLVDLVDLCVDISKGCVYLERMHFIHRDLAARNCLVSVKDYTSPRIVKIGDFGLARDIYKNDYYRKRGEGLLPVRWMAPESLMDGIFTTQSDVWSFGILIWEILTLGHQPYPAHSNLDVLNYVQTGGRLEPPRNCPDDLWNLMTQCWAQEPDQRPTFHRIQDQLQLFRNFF

## Input Return value of pKi for input CCc1noc2c1-c1cnc(N)c(c1)O[C@H](C)c1cc(F)ccc1-c1ccnn1C2 [Example 21] , no commentary.
## Output > 7.30

## Input Return pKi (reported value) for this molecule: C[C@H]1Oc2cc(cnc2N)-c2c(C#N)noc2Cn2nccc2-c2ccc(F)cc21 [Example 20]
## Output > 7.30

## Input Given the molecule C[C@H]1Oc2cc(cnc2N)-c2c(cnn2C2CC2)Cc2nn(C)nc2-c2ccc(F)cc21 [Example 14] , write its reported pKi.
## Output > 7.30

## Input Specify pKi for C[C@H]1Oc2cc(cnc2N)-c2c(C3CCC3)noc2Cn2ncnc2-c2ccc(F)cc21 [Example 52] and stop.
## Output > 7.30

## Input Complete the entry with pKi for C[C@H]1Oc2cc(cnc2N)-c2c(CC3CC3)noc2Cc2nn(C)nc2-c2ccc(F)cc21 [Example 63]
## Output > 7.30

## Input Assign pKi to the following record: CCc1noc2c1-c1cnc(N)c(c1)O[C@H](C)c1cc(F)ccc1-c1ncnn1C2 [Example 50]
## Output > 7.30

## Input Recall and state the measured pKi for C[C@H]1Oc2cc(cnc2N)-c2c(C#N)ncn2Cc2ncc(F)cc2-c2ccc(F)cc21 [Example 48] .
## Output > 7.30

Hello, the source for this data is patent US12054498B2, in case you need it.
